This section presents compounds with their documented IC50 values.
# TARGET_DESC: Lysophosphatidic acid receptor 1 (Homo sapiens)
# Sequence (Q92633 whole entry): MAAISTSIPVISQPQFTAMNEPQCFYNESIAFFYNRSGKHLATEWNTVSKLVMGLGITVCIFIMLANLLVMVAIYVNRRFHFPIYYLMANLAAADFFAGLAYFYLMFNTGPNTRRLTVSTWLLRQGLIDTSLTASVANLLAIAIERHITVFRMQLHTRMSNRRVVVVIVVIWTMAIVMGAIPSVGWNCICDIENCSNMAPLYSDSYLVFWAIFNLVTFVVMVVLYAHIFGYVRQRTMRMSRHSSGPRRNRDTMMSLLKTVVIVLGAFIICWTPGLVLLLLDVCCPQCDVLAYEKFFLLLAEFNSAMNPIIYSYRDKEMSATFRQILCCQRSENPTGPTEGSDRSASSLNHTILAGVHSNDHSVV
# TEST_NAME: Antagonist activity at LPA1 expressed in RH7777 cells with Gi4-protein and aequorin by calcium mobilization assay
PARAMETER: IC50

- COMPOUND: "Cc1csc2c(N[C@@H](C)CN3CCN(S(=O)(=O)c4ccc(Cl)c(Cl)c4)CC3)ncnc12"
  EXPERIMENTAL_RESULT: "> 50 µM"
- COMPOUND: "COc1cc(OC)cc(C(=O)N(CCCc2ccccc2)Cc2ccc(Oc3ccccc3C(=O)O)cc2)c1"
  EXPERIMENTAL_RESULT: "> 50 µM"
- COMPOUND: "Cc1ccccc1N1CCN(C[C@H](C)Nc2ncnc3c(C)csc23)CC1"
  EXPERIMENTAL_RESULT: "> 50 µM"
- COMPOUND: "Cc1noc(-c2ccccc2)c1NC(=O)OC(C)c1ccccc1 (centres undefined)"
  EXPERIMENTAL_RESULT: "0.05 µM"

----------
Overview of reported IC50 across a group of compounds:
# TARGET_DESC: Lysophosphatidic acid receptor 2 (Homo sapiens)
# TEST_NAME: Antagonist activity at LPA2 expressed in RH7777 cells with Gi4-protein and aequorin by calcium mobilization assay
# Format: functional, cell-based
PARAMETER: IC50 (µM)

- SMI: "COc1ccccc1N1CCN(CC(C)(C)Nc2nc(C(F)(F)F)nc3ccccc23)CC1"
  OP: ">"
  EXPERIMENTAL_RESULT: 30
- SMI: "CCCCS(=O)(=O)N1CCN(C[C@H](C)Nc2ncnc3c(C)csc23)CC1"
  OP: "="
  EXPERIMENTAL_RESULT: 6.61
- SMI: "Cc1csc2c(N[C@@H](C)CN3CCN(S(=O)(=O)c4ccc(Cl)c(Cl)c4)CC3)ncnc12"
  OP: "="
  EXPERIMENTAL_RESULT: 0.017
- SMI: "Cc1ccc(S(=O)(=O)N2CCN(C[C@H](C)Nc3ncnc4c(C)csc34)CC2)cc1"
  OP: "="
  EXPERIMENTAL_RESULT: 0.17
- SMI: "COc1cc(OC)cc(C(=O)N(CCCc2ccccc2)Cc2ccc(Oc3ccccc3C(=O)O)cc2)c1"
  OP: ">"
  EXPERIMENTAL_RESULT: 50
- SMI: "COc1ccccc1N1CCN(C[C@H](C)Nc2nc(C3CC3)nc3ccccc23)CC1"
  OP: "="
  EXPERIMENTAL_RESULT: 3.2
- SMI: "Cc1csc2c(N[C@@H](C)CN3CCN(S(=O)(=O)c4cccc(Cl)c4)CC3)ncnc12"
  OP: "="
  EXPERIMENTAL_RESULT: 0.035
- SMI: "CC[C@@H](CN1CCN(c2ccccc2OC)CC1)Nc1nc(C(F)(F)F)nc2ccccc12"
  OP: ">"
  EXPERIMENTAL_RESULT: 30
- SMI: "Cc1cccc(S(=O)(=O)N2CCN(C[C@H](C)Nc3ncnc4c(C)csc34)CC2)c1"
  OP: "="
  EXPERIMENTAL_RESULT: 0.31

----------
# TARGET_DESC: Lysophosphatidic acid receptor 2 (Homo sapiens, UniProt Q9HBW0)
# Sequence (Q9HBW0 whole entry): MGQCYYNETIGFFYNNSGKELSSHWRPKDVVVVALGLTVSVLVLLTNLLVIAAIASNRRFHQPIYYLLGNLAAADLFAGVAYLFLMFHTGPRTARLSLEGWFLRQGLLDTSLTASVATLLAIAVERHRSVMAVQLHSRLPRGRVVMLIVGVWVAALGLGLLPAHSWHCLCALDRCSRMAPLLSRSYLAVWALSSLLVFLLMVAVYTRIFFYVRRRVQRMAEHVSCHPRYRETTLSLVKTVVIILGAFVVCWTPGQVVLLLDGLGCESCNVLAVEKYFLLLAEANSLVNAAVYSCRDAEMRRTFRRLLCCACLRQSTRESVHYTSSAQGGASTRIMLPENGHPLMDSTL
# TEST_NAME: Antagonist activity at LPA2 expressed in RH7777 cells with Gi4-protein and aequorin by calcium mobilization assay
# Assay type: functional, cell-based
PARAMETER: IC50 (nM)

- COMPOUND: "Cc1noc(-c2ccccc2)c1NC(=O)OC(C)c1ccccc1 (stereo not drawn)"
  OP: ">"
  EXPERIMENTAL_RESULT: 50000
- COMPOUND: "Cc1ccccc1S(=O)(=O)N1CCN(C[C@H](C)Nc2ncnc3c(C)csc23)CC1"
  OP: "="
  EXPERIMENTAL_RESULT: 730
- COMPOUND: "Cc1csc2c(N[C@@H](C)CN3CCN(S(=O)(=O)Cc4ccccc4)CC3)ncnc12"
  OP: "="
  EXPERIMENTAL_RESULT: 1860
- COMPOUND: "COc1ccccc1N1CCN(C[C@@H](C)Nc2nc(C(F)(F)F)nc3ccccc23)CC1"
  OP: ">"
  EXPERIMENTAL_RESULT: 30000
- COMPOUND: "Cc1ccccc1N1CCN(C[C@H](C)Nc2nc(C(F)(F)F)nc3ccccc23)CC1"
  OP: "="
  EXPERIMENTAL_RESULT: 730
- COMPOUND: "Cc1ccccc1N1CCN(C[C@H](C)Nc2ncnc3c(C)csc23)CC1"
  OP: "="
  EXPERIMENTAL_RESULT: 260
- COMPOUND: "COc1ccccc1N1CCN(C[C@H](C)Nc2nc(C(F)(F)F)nc3ccccc23)CC1"
  OP: "="
  EXPERIMENTAL_RESULT: 1300
- COMPOUND: "COc1ccccc1N1CCN(CCNc2nc(C(F)(F)F)nc3ccccc23)CC1"
  OP: ">"
  EXPERIMENTAL_RESULT: 30000
